FYI, the data here is from paper PMC2688778.

Molecular target: T1, RecE564 S615A (Escherichia coli K12, UniProt P15032 564-866, S615A)
T1 sequence: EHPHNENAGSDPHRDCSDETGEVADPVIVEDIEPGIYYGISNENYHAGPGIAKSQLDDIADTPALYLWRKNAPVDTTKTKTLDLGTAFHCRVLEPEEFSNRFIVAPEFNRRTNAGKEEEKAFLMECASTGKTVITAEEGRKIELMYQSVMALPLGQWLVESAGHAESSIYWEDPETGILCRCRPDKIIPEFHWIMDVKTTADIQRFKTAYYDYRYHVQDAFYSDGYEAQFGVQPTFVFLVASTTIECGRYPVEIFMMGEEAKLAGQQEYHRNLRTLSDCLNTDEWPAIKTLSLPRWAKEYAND
Assay: fluorescence anisotropy
Observable: Kd (nM)
// return numeric value only (unit: nM, not printed)

Can you share its Kd? I mean this binder: F25 (dsDNA) DNA 1: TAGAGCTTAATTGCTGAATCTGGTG DNA 2: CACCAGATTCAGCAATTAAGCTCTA 100
